- target_entity: apical domain of CD71 (Screen 3: 'cynomolgus apical domain of human CD71') (cynomolgus (as paragraph 454 words it; ambiguous))
- assay_explanation: primary ELISA
readout: RLU (RLU)

>>> recorded_result("CD71-binding FN3 domain SEQ ID NO: 257 (designed binder) MSLPAPKNLVVSHVTEDSARLSWTAPDAAFDSFEIGYWENAYKGEAIVLTVPGSERSYDLTGLKPGTEYVVFIGGVKGGVWSVPLSAIFTT")
"5.15e+06"
>>> recorded_result("CD71-binding FN3 domain SEQ ID NO: 308 (designed binder) MSLPAPKNLVVSRVTEDSARMSWTTPDAAFDSFEIGYFENLYLGEAIVLTVPGSERSYDLTGLKPGTEYWVQIGGVKGGNWSAPLSAIFTT")
"5.26e+06"
